- System: CPC-N (Small Cell Lung Carcinoma)
- ASSAY SUMMARY: combination Emax (second highest fraction inhibited in the dose matrix, 72 h); higher = more inhibition; extreme values may be limits of the assay
MEASURED METRIC: combination Emax
API doc: respond with a numeric literal and nothing else, no unit.

Query block: Could you share which combination Emax value was measured for C[C@@H](Nc1cc(F)cc(F)c1)c1cc(C(=O)N(C)C)cc2c(=O)cc(N3CCOCC3)oc12 [AZD8186] + CC(=O)c1c(C)c2cnc(Nc3ccc(N4CCNCC4)cn3)nc2n(C2CCCC2)c1=O [Palbociclib] (first compound max 10 µM, 7x7, partner max 10 µM) ?
Result block: 0.262

Query block: Could you share which combination Emax value was measured for C[C@@H](c1ccc2nccn2c1)n1nnc2ncc(-c3cnn(C)c3)nc21 [Savolitinib] + Cc1c2c(nn1C)CSCc1cc(n(C)n1)CSc1cc(c3ccccc3c1)OCCCc1c(C(=O)O)n(C)c3c-2c(Cl)ccc13 [AZD5991] (first compound max 1 µM, 7x7, partner max 1 µM) ?
Result block: 0.263

Query block: Could you share which combination Emax value was measured for CN(CCO)CC[C@H](CSc1ccccc1)Nc1ccc(S(=O)(=O)NC(=O)c2ccc(N3CCC([C@@H](O)c4ccccc4-c4ccc(Cl)cc4)CC3)cc2)cc1S(=O)(=O)C(F)(F)F [AZD4320] + Cc1cc2ncnn2cc1Nc1ncc2c(n1)n(C1CCOCC1)c(=O)n2C [AZD7648] (first compound max 1 µM, 7x7, partner max 10 µM) ?
Result block: 0.984
